Recorded values, source patent US20250027068.

target: pooled human IgG
RECORDED_METRIC: Enzyme Activity Endpoint Assay: IgG (ng/µL)
Kindly answer with a numeric value in ng/µL, unit omitted.

protein="PRT-536 (protein) MANQEIRYSGDSEWANKKVWVYGITPAEEGAWLYSTYYLPWKKEYGWYDCNKRNPTADGMMCWAASASNLMHWWIAQNKRYIDLYGDRYKGPDKINFNGEQMFDVKEYIDPLDKPQESDIFQCFIDKSFADLSTKHEAGKGDEGINWFIHGIIPSYPAHGPTPVKLRYPYNPAGYFKDVFPRGDGVVLGGNNGDFKELGKERFNETIKDALANKKGIGLSIGPVNVRKSHVETMWGAEFDENGDVSYIYMADNNDRWGVGCIRLQIVYVEGATYTCYKTEIIPSDRPIPINRLVTVELGEEYWKQTNLEHHHHHH" measurement=1530

INPUT: Identify the reported Enzyme Activity Endpoint Assay: IgG for the following entry. PRT-562 (protein) MANQEIRYSKATPSHITSVWTKGVTPPEQFIQNEDVLHAPYIANQGWYDITKTFNGKDDLLCGAATAGNMLHWWFDQNKEQIENYLKKHPEKQKINFNGEQMFDVKEAIDTKDSQTNSALFSYFKDKAFPYLSTKHLGVFPDHVIDMFINGYRLSLTNHGPTPVKEQTKDPRGGIFDAVFTRGDQSKLLTSRHDFKEKTLNEISQLIKQELTEGKALGLSHTYANVRINHVINLWGADFNAEGNLEAIYVTDSDSNASIGMKKYYVGVNSAGKVAISAKEIEGDNIGAQVLGLFTLSTGQDIWQQTNLEHHHHHH
OUTPUT: 0
